- Test system: 883617-216-R-J1-PDC complex spheroid viability
- Test: Anticancer human tumor 883617-216-R-J1-PDC patient-derived bladder carcinoma cell line growth inhibition [POLQ]
- Test settings: second compound 0.316 µM; first compound 0.01 µM; active compounds read low
Measurement kind: viability, T/C (%)
Write it as a number; the unit % goes unstated.

molecule="Cn1ncnc1[C@H]1c2n[nH]c(=O)c3cc(F)cc(c23)N[C@@H]1c1ccc(F)cc1 + Cc1cccc(N(C)C(=O)C2C(O)CCN2c2nc(C)cc(C(F)(F)F)c2C#N)c1" experimental_result=81.1

Form field: reported viability, T/C of Cn1ncnc1[C@H]1c2n[nH]c(=O)c3cc(F)cc(c23)N[C@@H]1c1ccc(F)cc1 + Nc1ccc(C#CCN(C(=O)Cc2ncc(C(F)(F)F)cc2C(F)(F)F)c2ccc(F)cc2)nn1
87.9

Follow-up entry: C=CCn1c(=O)c2cnc(Nc3ccc(N4CCN(C)CC4)cc3)nc2n1-c1cccc(C(C)(C)O)n1 + COC1C(OC(N)=O)C(O)C(Oc2ccc3c(O)c(NC(=O)c4ccc(O)c(CC=C(C)C)c4)c(=O)oc3c2C)OC1(C)C
99.8

Follow-up entry: CC[C@@]1(O)C(=O)OCc2c1cc1n(c2=O)Cc2cc3c(CN(C)C)c(O)ccc3nc2-1 + Nc1ccc(C#CCN(C(=O)Cc2ncc(C(F)(F)F)cc2C(F)(F)F)c2ccc(F)cc2)nn1
81.1

Follow-up entry: CC[C@@]1(O)C(=O)OCc2c1cc1n(c2=O)Cc2cc3c(CN(C)C)c(O)ccc3nc2-1 + COC1C(OC(N)=O)C(O)C(Oc2ccc3c(O)c(NC(=O)c4ccc(O)c(CC=C(C)C)c4)c(=O)oc3c2C)OC1(C)C
81.6

###

- Test system: 883617-216-R-J1-PDC complex spheroid viability
- Test: Anticancer human tumor 883617-216-R-J1-PDC cell line growth inhibition [POLQ];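 further: spheroids exposed to compounds for seven days before readout; 100% = DMSO vehicle control viability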
- Test settings: second compound 0.0316 µM; first compound 0.0316 µM; active compounds read low
The reader will find reported viability, T/C values listed item by item below.
Write it as a number; the unit % goes unstated.

molecule="COc1ccc([C@@H](O)c2cc(-c3ncnc4cc(N5CCOCC5)ccc34)c(F)cc2Cl)nn1 + Nc1ccc(C#CCN(C(=O)Cc2ncc(C(F)(F)F)cc2C(F)(F)F)c2ccc(F)cc2)nn1" measurement_kind="viability, T/C" experimental_result=104
molecule="CC(C)n1c(=O)n(C)c2cnc3cc(F)c(-c4ccc(OCCCN5CCCCC5)nc4)cc3c21 + Cc1cccc(N(C)C(=O)C2C(O)CCN2c2nc(C)cc(C(F)(F)F)c2C#N)c1" measurement_kind="viability, T/C" experimental_result=105
molecule="COc1cc2cc(C(=O)CCC(=O)O)sc2cc1OC + COC1C(OC(N)=O)C(O)C(Oc2ccc3c(O)c(NC(=O)c4ccc(O)c(CC=C(C)C)c4)c(=O)oc3c2C)OC1(C)C" measurement_kind="viability, T/C" experimental_result=91.3
molecule="Nc1ccn(C2OC(CO)C(O)C2(F)F)c(=O)n1 (stereo unspecified) + Nc1ccc(C#CCN(C(=O)Cc2ncc(C(F)(F)F)cc2C(F)(F)F)c2ccc(F)cc2)nn1" measurement_kind="viability, T/C" experimental_result=33.7
molecule="CC1COCCN1c1cc(C2(O)CC3CCC(C2)O3)c2cnn(-c3ccn[nH]3)c2n1 (stereo unspecified) + Nc1ccc(C#CCN(C(=O)Cc2ncc(C(F)(F)F)cc2C(F)(F)F)c2ccc(F)cc2)nn1" measurement_kind="viability, T/C" experimental_result=70.8

Now for a further molecule.
Form field: reported viability, T/C of CC1COCCN1c1cc(C2(S(C)(=N)=O)CC2)nc(-c2ccnc3[nH]ccc23)n1 (stereo unspecified) + Cc1cccc(N(C)C(=O)C2C(O)CCN2c2nc(C)cc(C(F)(F)F)c2C#N)c1
97.7

Reference source: PubChem BioAssay AID1963833
